Task for the reader: assign each of the following compounds its reported ED50.
system: Candida albicans A-26; experiment: Therapeutic activity against Candida albicans A-26 infection in mice; format: in vivo; settings: A26, sc
Numbered stars: 1 amine (or outer) side, 2 acyl side, 3 side chain; on linkers, the order of the positions; unused ones are H or OH. Bridge positions count the residues as written; N and C are the ends. Square brackets hold non-standard residues; d marks the D form. Peptide text beside a SMILES is read from it. * marks the point of attachment. Orn(4R-OH,5R-OH) = O=C([C@H](C[C@@H](O)[C@@H](O)N[*:3])N[*:1])[*:2]; hTyr(3S-OH,4S-OH) = N[C@H](C(=O)O)[C@H](O)[C@@H](O)c1ccc(O)cc1; Pro(3S-OH,4S-Me) = C[C@H]1CN[C@H](C(=O)O)[C@H]1O; X5 = O=C(c1cc(Cl)cc(N[*:1])c1Cl)[*:2]; Hyp = O=C(O)[C@@H]1C[C@@H](O)CN1; Lauroyl = CCCCCCCCCCCC(=O)*; 4Abz = Nc1ccc(C(=O)O)cc1
The answer is to be given in mg/kg; state only the numeric part.

Provide Candida albicans A-26 ED50 reading for CCCCCCCCCCCC(=O)Nc1cc(Cl)cc(C(=O)N[C@H]2C[C@@H](O)[C@@H](O)NC(=O)[C@@H]3[C@@H](O)[C@@H](C)CN3C(=O)[C@H]([C@@H](C)O)NC(=O)[C@H]([C@H](O)[C@@H](O)c3ccc(O)cc3)NC(=O)[C@@H]3C[C@@H](O)CN3C(=O)[C@H]([C@@H](C)O)NC2=O)c1Cl [Example 67] (Lauroyl-[X5][Orn(4R-OH,5R-OH)]T[Hyp][hTyr(3S-OH,4S-OH)]T[Pro(3S-OH,4S-Me)]; lactam 2-C) .
14

Send back Candida albicans A-26 ED50 of CCCCCCCCCCCC(=O)Nc1ccc(C(=O)N[C@H]2C[C@@H](O)[C@@H](O)NC(=O)[C@@H]3[C@@H](O)[C@@H](C)CN3C(=O)[C@H]([C@@H](C)O)NC(=O)[C@H]([C@H](O)[C@@H](O)c3ccc(O)cc3)NC(=O)[C@@H]3C[C@@H](O)CN3C(=O)[C@H]([C@@H](C)O)NC2=O)cc1 [Example 64] ({Lauroyl-4Abz}-[Orn(4R-OH,5R-OH)]T[Hyp][hTyr(3S-OH,4S-OH)]T[Pro(3S-OH,4S-Me)]; lactam 1-C) only.
15

====

Give measured MIC for each item. Keep answers brief.
tested on: Candida albicans A-26; assay: Agar plate disc diffusion test, MIC per disc; format: cell-based; settings: 0.01M sodium borate, pH 7.5, 24 hours at 30° C.
Numbered stars: 1 amine (or outer) side, 2 acyl side, 3 side chain; on linkers, the order of the positions; unused ones are H or OH. Bridge positions count the residues as written; N and C are the ends. Square brackets hold non-standard residues; d marks the D form. Peptide text beside a SMILES is read from it. * marks the point of attachment. ξ: configuration not given here. Orn(4R-OH,5R-OH) = O=C([C@H](C[C@@H](O)[C@@H](O)N[*:3])N[*:1])[*:2]; hTyr(3S-OH,4S-OH) = N[C@H](C(=O)O)[C@H](O)[C@@H](O)c1ccc(O)cc1; Pro(3S-OH,4S-Me) = C[C@H]1CN[C@H](C(=O)O)[C@H]1O; X1 = O=C(c1cc(I)c(N[*:1])c(I)c1)[*:2]; Hyp = O=C(O)[C@@H]1C[C@@H](O)CN1; X4 = Cc1cc(C(=O)[*:2])ccc1N[*:1]; Myristoyl = CCCCCCCCCCCCCC(=O)*; X3 = O=C(c1cccnc1N[*:1])[*:2]; Lauroyl = CCCCCCCCCCCC(=O)*; 4Abz = Nc1ccc(C(=O)O)cc1; ξF = NC(Cc1ccccc1)C(=O)O
Express it in μg/disc; write the number only.

Consider the compound CCCCCCCCCCCC(=O)Nc1ncccc1C(=O)N[C@H]1C[C@@H](O)[C@@H](O)NC(=O)[C@@H]2[C@@H](O)[C@@H](C)CN2C(=O)[C@H]([C@@H](C)O)NC(=O)[C@H]([C@H](O)[C@@H](O)c2ccc(O)cc2)NC(=O)[C@@H]2C[C@@H](O)CN2C(=O)[C@H]([C@@H](C)O)NC1=O [Example 75] (Lauroyl-[X3][Orn(4R-OH,5R-OH)]T[Hyp][hTyr(3S-OH,4S-OH)]T[Pro(3S-OH,4S-Me)]; lactam 2-C) . State its measured MIC.
2.5

Identify MIC associated with the compound CCCCCCCCCCCCCC(=O)Nc1ccc(C(=O)N[C@H]2C[C@@H](O)[C@@H](O)NC(=O)[C@@H]3[C@@H](O)[C@@H](C)CN3C(=O)[C@H]([C@@H](C)O)NC(=O)[C@H]([C@H](O)[C@@H](O)c3ccc(O)cc3)NC(=O)[C@@H]3C[C@@H](O)CN3C(=O)[C@H]([C@@H](C)O)NC2=O)cc1 [Example 80] ({Myristoyl-4Abz}-[Orn(4R-OH,5R-OH)]T[Hyp][hTyr(3S-OH,4S-OH)]T[Pro(3S-OH,4S-Me)]; lactam 1-C)
1.25

Return MIC for the following compound: CCCCCCCCCCCC(=O)Nc1ccc(C(=O)N[C@H]2C[C@@H](O)[C@@H](O)NC(=O)[C@@H]3[C@@H](O)[C@@H](C)CN3C(=O)[C@H]([C@@H](C)O)NC(=O)[C@H]([C@H](O)[C@@H](O)c3ccc(O)cc3)NC(=O)[C@@H]3C[C@@H](O)CN3C(=O)[C@H]([C@@H](C)O)NC2=O)cc1C [Example 70] (Lauroyl-[X4][Orn(4R-OH,5R-OH)]T[Hyp][hTyr(3S-OH,4S-OH)]T[Pro(3S-OH,4S-Me)]; lactam 2-C)
20

Please look at this compound and report its MIC: CCCCCCCCCCCC(=O)NC(Cc1ccccc1)C(=O)N[C@H]1C[C@@H](O)[C@@H](O)NC(=O)[C@@H]2[C@@H](O)[C@@H](C)CN2C(=O)[C@H]([C@@H](C)O)NC(=O)[C@H]([C@H](O)[C@@H](O)c2ccc(O)cc2)NC(=O)[C@@H]2C[C@@H](O)CN2C(=O)[C@H]([C@@H](C)O)NC1=O (stereo partly drawn) [Example 61] (Lauroyl-[ξF][Orn(4R-OH,5R-OH)]T[Hyp][hTyr(3S-OH,4S-OH)]T[Pro(3S-OH,4S-Me)]; lactam 2-C)
0.625

Tell us which MIC value is on record for CCCCCCCCCCCC(=O)Nc1c(I)cc(C(=O)N[C@H]2C[C@@H](O)[C@@H](O)NC(=O)[C@@H]3[C@@H](O)[C@@H](C)CN3C(=O)[C@H]([C@@H](C)O)NC(=O)[C@H]([C@H](O)[C@@H](O)c3ccc(O)cc3)NC(=O)[C@@H]3C[C@@H](O)CN3C(=O)[C@H]([C@@H](C)O)NC2=O)cc1I [Example 68] (Lauroyl-[X1][Orn(4R-OH,5R-OH)]T[Hyp][hTyr(3S-OH,4S-OH)]T[Pro(3S-OH,4S-Me)]; lactam 2-C)
1.25
